Parameter: competition value. Scope: all listed entries.
# experimental_system: stabilized BG505 SOSIP construct MD39 (HIV isolate BG505)
# assay_summary: competition ELISA on MD39 vs PG9

NC-Cow7 (antibody) VH: KVQLRESGPSLVKPFETLSLTCTGSGFSLSDKAAGWVRQAPGKAPEWLGSIDTGGNTGYNPGLKYRLSITKDNSKSQVSLSVSSMTSEDSATYYCTTVHQKAYKKVCPDDYSSNPDCVRLYGWSHCDCMRDSFGGWCRADGCSSTVEIGPYEWYVNAWGQGLLVTVSS VL: QAVLTQPSSVSGSLGQRVSITCSGSSSNVGNGYVSWYQLIPGSAPRSLIYGDTSRASGVPDRFSGSRSGNTATLTISSLQAEDEADYFCASPEDSSSNGVFGSGTTLTVL; 8
NC-Cow2 (antibody) VH: KVQLRESGPSLVKPSQTLSLTCMVSGSSLSDKAVGWVRQAPGKALEWLGIISAGGNRGYNSGLRSRLTISKDNSKNEVSLRVRSVTTEDSATYFCGTVHQKTQRKPICPDGYSDDSTLRYYSRCSDRDCWRCTGTTYYDTCQCGTYTWIDTHELHVDAWGQGLLVTVSS VL: QAVLNQPSSVSGSLGQRVSITCSGSSSNVGNGYVSWYQLIPGSAPRTLIYGDTSRASGVPDRFSGSRSGNTATLTISSLQAEDEADYFCASAEDSSSNAVFGSGTTLTVL; 4
NC-Cow5 (antibody) VH: QVQLQESGPSLVKPSQTLSLTCMVSGFSLNDKAVGWVRQAPGKALEWLGSIDAGGSTGYNPGLKSRLSISKDNSKNQVSLSVSSVTTEDSATYYCGTVHQRTQPKQTCPNGYSDDSALRYYSRCSDRDCWRCTGTTYYDTCQCSSYTYIHTYELYVDAWGQGLLVTVSS VL: QDVLTQPSSVSGSLGQRVSITCSGSSSNVGNGYVSWYQLIPGSAPRTLIYGDTSRASGVPDRFSGSRSGNTATLTISSLQAEDEADYFCASPEDSSSNAVFGSGTTLTVL; 21

Continue with the binder presented below.
So, NC-Cow4 (antibody) VH: KVQLRESGPSLVKPSQTLSLTCMVSGFSLNDEAVGWVRQAPGKALEWLGSIDAGGSTGYNPGLKSRLSISKDNSKNQVSLSVSSVTTEDSATYYCGTVHQRTQPKQTCPNGYSDDSALRYYSRCSDRDCWRCTGTTYYDTCQCSSYTYIHTYELYVDAWGQGLLVTVSS VL: QAVLTQPSSVSGSLGQRVSITCSGSSSNVGNGYVSWYQLIPGSAPRTLIYGDTSRASGVPDRFSGSRSGNTATLTISSLQAEDEADYFCASPEDSSSNAVFGSGTTLTVL ? Its competition value was 7
